System: Phospho-Rb Ser807/811 in OVCAR3 cells
Assay: OVCAR3 Phospho-Rb Ser807/811 HTRF assay
Format: cell-based
Details: Homo sapiens, OVCAR-3, 1 h, OVCAR3 cells, Phospho-Rb Ser807/811 HTRF, 1 hour incubation; read-out: pRb-OVCAR3 IC50
Kindly state pIC50 for each of the entries shown.
Answers are plain numbers, as −log10 of the molar value.

{"columns": ["compound", "study system", "property label", "result"],
 "data": [
  ["CC(C)NC(=O)O[C@@H]1CC[C@H](c2cc(NC(=O)c3cc(OCc4cccc(O)c4C=O)nn3C)n[nH]2)C1 [Compound 28]", "Phospho-Rb Ser807/811 in OVCAR3 cells", "pIC50", 5.74]
]}

// each compound listed below needs its pIC50
1. CC(C)NC(=O)O[C@@H]1CC[C@H](c2cc(NC(=O)c3cc(C(=O)Nc4ccccc4C=O)nn3C)n[nH]2)C1 [Compound 21]
2. CC(C)NC(=O)O[C@@H]1CC[C@H](c2cc(NC(=O)COc3cc(Cl)cc(O)c3C=O)n[nH]2)C1 [Compound 73]
3. Cc1cc(O)c(C=O)c(OCC(=O)Nc2cc([C@H]3CC[C@@H](OC(=O)NC(C)C)C3)[nH]n2)c1 [Compound 57]
4. C#Cc1cc(O)c(C=O)c(OCC(=O)Nc2cc([C@H]3CC[C@@H](OC(=O)NC(C)C)C3)[nH]n2)c1 [Compound 99]
5. COc1cc(O)c(C=O)c(OCC(=O)Nc2cc([C@H]3CC[C@@H](OC(=O)NCC#N)C3)[nH]n2)c1 [Compound 127]
6. COc1cc(O)c(C=O)c(OCC(=O)Nc2cc([C@H]3CC[C@@H](OC(=O)N4[C@H](C)COC[C@@H]4C)C3)[nH]n2)c1 [Compound 201]
7. COc1cc(O)c(C=O)c(OCC(=O)Nc2cc([C@H]3CC[C@@H](OC(=O)NC[C@@H](C)OC)C3)[nH]n2)c1 [Compound 202]
8. COc1cccc(OCC(=O)Nc2cc([C@H]3CC[C@@H](OC(=O)NC(C)C)C3)[nH]n2)c1C=O [Compound 95, trifluoroacetic acid]

Completion:
[5.67, 6.52, 6.96, 6.59, 7.01, 7.55, 7.15, 6.94]

Would you be so kind as to report pIC50 for each listed record?
1. COc1cc(O)c(C=O)c(OCC(=O)Nc2cc([C@H]3CC[C@@H](OC(=O)NCCN(C)C)C3)[nH]n2)c1 [Compound 188]
2. CC(C)NC(=O)O[C@@H]1CC[C@H](c2cc(NC(=O)N3CC=C(c4cccc(O)c4C=O)C3)n[nH]2)C1 [Compound 78]
3. COCCNC(=O)O[C@@H]1CC[C@H](c2cc(NC(=O)COc3cc(OC)cc(O)c3C=O)n[nH]2)C1 [Compound 213]
4. COc1cc(O)c(C=O)c(OCC(=O)Nc2cc([C@H]3CC[C@@H](OC(=O)N4C5COCC4C5)C3)[nH]n2)c1 [Compound 231]
5. CCOc1cc(O)c(C=O)c(OCC(=O)Nc2cc([C@H]3CC[C@@H](OC(=O)N4CCC4(C)C)C3)[nH]n2)c1 [Compound 211]

Completion:
[6.43, 5.92, 7.45, 7.73, 7.46]
